Reported apparent KD of K4 kissing-loop reporter values for the following sequences.
tested on: K4 kissing-loop RNA reporter; test: apparent KD of K4 kissing-loop reporter; higher = weaker reporter binding; details: Eterna round: R107; input ligand: theophylline 20 uM
MEASUREMENT LABEL: apparent KD of K4 kissing-loop reporter

- UGAUAGGACAGAAGGAGCGGUAGUGAUGUUGCCAAAAGAAUAAGGUGUCAAAAGACACCCUACCAGGUAGGUCGCUGUCCUAUCU: 429 nM
- CUCACAGUGAUGUUGUGGGCCGAGAGUGAUACCAGCCGUAUUUGUGGCCCUUGGCAGCGCAAAAGCCGAGUGAUGUUCGAAUCGG [Same State Theophylline A GF 24]: 190 nM
- CGUUUAUAGCAGGAUACCAGUACCCAUAAAGUACGUUAAUAGUAGAGUGAUGUUCUAAAGUACCCUUGGCAGCUUCCCGUGACCC [ExTheophylB.W]: 182 nM

###

tested on: K4 kissing-loop RNA reporter; test: apparent KD of K4 kissing-loop reporter; higher = weaker reporter binding; settings: Eterna round: R107; input ligand: none;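 also: bound reporter read as fluorescence of individual clusters on recovered sequencing chips by microscopy, with normalized cluster intensities fitted with a binding model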
MEASUREMENT LABEL: apparent KD of K4 kissing-loop reporter (nM)

* CCGAGCCUGACGAAAGUCAGGCUCUGCGAGCGAGGACCGGUACGGCCGCCACUCGGUGCAGUGAUGUUGCAUGGCCGCAAGGCCG [#2 Exclusion - Tryptophan A Attempt #22 (HarryS)] | 240
* AAAUUUUCGAGUGAUGUUCGAAUAAUUUCAGAGGAUAUGCUUAAAAGCAGAAGGCUGUAUUACUAUUUGUUAUUAAAUUUUAUAA [JR_ExcFMNA_Sub001] | 96.7
* AGUUCUUGCCGAAGGAGCGAGGCAGAGUGAUGUUCUGCAGAUGUCGAAAGACAUCAACUGCCUCAGGUAGGUCGCGGCAUGAACA [#05 K4 Arginine B Exclusion] | 99.6

###

system: MS2 coat protein; assay: apparent KD of MS2 coat protein; designed switch direction (-1 OFF switch, 1 ON switch): 1; higher = weaker reporter binding; settings: Eterna round: R95; input ligand: FMN 200 uM
MEASUREMENT LABEL: apparent KD of MS2 coat protein (nM)

* UACAAUCUAUCUGAGGAUAUCAUGAAUUAAACAUGAGGAUCACCCAUGUGCAGGAAAACUGCAUAUGAGAAGGCAGAUAGAUUGU [salish99_ss2_r3_060] (puzzle: Same State 2) | 52.9
* AACAAUCUAUCUGAGGAUAUCAUGAAAUAAACAUGAGGAUCACCCAUGUGCAGGAAAACUGCAUAUUAGAAGGCAGAUAGAUUGA [salish99_ss2_r3_049] (puzzle: Same State 2) | 163
* ACAAGCUUUUUGCUCGUCUUCAUGUAAUAACAUGAGGAUCACCCAUGUAACGUUAAAAGUCUCUCGAUAAUAGCUCA [Meechl hsa-mir-208a 1] (puzzle: Sensor for hsa-mir-208a) | 132
* GUCAGGCAAGCUUUUUUCUCGUAGUGUAAACAUGAGGAUCACCCAUGUGCUCGCCCUGGAUCUUUGGAUCCCAGAAA [Anedraus] (puzzle: Sensor for hsa-mir-208a) | 40.2
* GGUCCAGCCUGAGCUGGACAAAAGCAUGUACAUGAGGAUCACCCAUGUUCAUGUACAAGCUUUUUGCUCGUCUUACC [salish99_208a_r3_090x] (puzzle: Sensor for hsa-mir-208a) | 570
* GGAGCCGGCACCGAGGAUAUUCAUAUUAAAACAUGAGGAUCACCCAUGUAGGUCAAAAGACCUUGGGAGAAGGCGGAUCGGCUCG [Xeonanis - 31] (puzzle: Same State 2) | 32.1
* GUAAAACAUGAGGAUCACCCAUGUAAUAAUAUGGGAGGAUAUCAGAUUUAAUUUAAUUUAUGAGAAGGCCUAAAUU [Mat - Same State 1 - Mod of Eli - D62] (puzzle: Same State 1) | 43.4
* AGUCCAGCGAGAGCUGGACAAAAGCAUGUACAUGAGGAUCACCCAUGUCAUGUACAAGCUUUUUGCUCGUCUUAAAA [Mat - hsa-mir-208a - Mod of JL - D5] (puzzle: Sensor for hsa-mir-208a) | 332
* CAGCGCUGCCGGGAGGAUAUGCGGUGAUGGACAUGAGGAUCACCCAUGUUAGCGGUAGCAUUACGGCAGAAGGCCCUGCAGCUGC [Soteed Omei mod 1] (puzzle: Same State 2) | 10.9
* UAGAGAGGAAGCGAGGAUAUCGUGUGAGGAACAUGAGGAUCACCCAUGUGUGAUGUUGAGAGAGACGAGAAGGCGCAGGAGAUUA [JR_SS2_Sub083] (puzzle: Same State 2) | 87.5
* AGCUAUCGAAAACGAUAGCAAAAGCGUGUACAUGAGGAUCACCCAUGUCAUGUACAAGCUUUUUGCUCGUCUUAAAA [Zipper 23 - 6] (puzzle: Sensor for hsa-mir-208a) | 34
* UGAGCCGGCACUGAGGAUAUUCAUAAUAAAACAUGAGGAUCACCCAUGUAGGCCAGAAGGCCUUGGGAGAAGGCAGGUCGGCUCU [Mat - Same State 2 - Mod of UCT - D70] (puzzle: Same State 2) | 13.8
* AGCUGUGGAAAACUAUAGCAAAAGUAUGUACAUGAGGAUCACCCAUGUCAUGUACAAGCUUUUUGCUCGUCUUAAAA [ak 5 mod of one Eli's designs.] (puzzle: Sensor for hsa-mir-208a) | 42.4

Values from the supplement of paper PMC9170038
